target: G-protein coupled bile acid receptor 1 (Homo sapiens); test: Agonist activity at N-terminal HA-tagged human TGR5 expressed in HEK293 cells assessed as […] in intracellular cAMP levels incubated for 30 mins by Lance Ultra cAMP assay
Sequence (Q8TDU6 whole entry): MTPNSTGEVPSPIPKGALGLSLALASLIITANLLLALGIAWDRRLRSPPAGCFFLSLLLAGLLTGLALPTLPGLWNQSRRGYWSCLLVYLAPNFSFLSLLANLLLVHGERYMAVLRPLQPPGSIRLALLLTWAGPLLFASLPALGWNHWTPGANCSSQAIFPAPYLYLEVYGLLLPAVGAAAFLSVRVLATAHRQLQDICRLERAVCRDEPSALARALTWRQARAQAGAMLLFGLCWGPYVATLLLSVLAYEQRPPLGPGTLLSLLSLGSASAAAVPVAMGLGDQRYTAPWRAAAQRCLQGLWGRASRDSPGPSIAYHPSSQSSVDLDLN

| Structure Notation | EC50 |
| --- | --- |
| CC(C)[C@@H]1CC[C@]2(C(=O)OCC(=O)O)CC[C@]3(C)[C@H](CC[C@@H]4[C@@]5(C)CC[C@@H](OC(=O)NC6CC6)C(C)(C)[C@@H]5CC[C@]43C)[C@@H]12 | 306 nM |
| CC(C)[C@@H]1CC[C@]2(C(=O)NCC(=O)O)CC[C@]3(C)[C@H](CC[C@@H]4[C@@]5(C)CC[C@@H](OC(=O)NC6CC6)C(C)(C)[C@@H]5CC[C@]43C)[C@@H]12 | 380 nM |
| CNS(=O)(=O)O[C@@H]1CC[C@]2(C)[C@H]3CC[C@@H]4[C@H]5[C@H](C(C)C)CC[C@]5(C(=O)O)CC[C@@]4(C)[C@]3(C)CC[C@H]2C1(C)C | 45.4 nM |
| CCNC(=O)O[C@@H]1CC[C@]2(C)[C@H]3CC[C@@H]4[C@H]5[C@H](C(C)C)CC[C@]5(C(=O)O)CC[C@@]4(C)[C@]3(C)CC[C@H]2C1(C)C | 13 nM |
